Field: IC50. Provide a value for each of the molecules that follow.
SYSTEM_NAME: ITK (Homo sapiens, UniProt Q08881)
Sequence (Q08881 1-620): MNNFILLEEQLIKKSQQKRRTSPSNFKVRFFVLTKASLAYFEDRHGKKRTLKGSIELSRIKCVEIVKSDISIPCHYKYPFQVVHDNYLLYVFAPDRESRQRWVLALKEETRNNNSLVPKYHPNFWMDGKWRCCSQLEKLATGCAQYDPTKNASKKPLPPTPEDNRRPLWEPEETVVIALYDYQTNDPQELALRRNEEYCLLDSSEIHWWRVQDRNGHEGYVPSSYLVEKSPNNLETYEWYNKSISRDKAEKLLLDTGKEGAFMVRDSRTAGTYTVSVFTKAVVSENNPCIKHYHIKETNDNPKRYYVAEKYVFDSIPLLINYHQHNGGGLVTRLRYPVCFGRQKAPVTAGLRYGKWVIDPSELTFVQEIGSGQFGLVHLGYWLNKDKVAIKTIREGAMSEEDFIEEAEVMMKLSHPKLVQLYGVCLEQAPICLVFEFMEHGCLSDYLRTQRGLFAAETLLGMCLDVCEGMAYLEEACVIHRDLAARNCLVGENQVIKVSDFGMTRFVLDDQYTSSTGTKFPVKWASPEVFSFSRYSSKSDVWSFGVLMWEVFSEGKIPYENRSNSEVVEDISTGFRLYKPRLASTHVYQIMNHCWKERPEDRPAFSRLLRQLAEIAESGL
EXPERIMENTAL_PROTOCOL: Inhibition of a panel of kinases, in vitro HotSpot kinase assay: ITK
Assay type: biochemical
CONDITION_DETAILS: E compounds, Table 17

Quick one: IC50 for `C=CC(=O)N1CCC[C@@H](Nc2nnc(C(N)=O)c(Nc3ccc(-c4cnn(C(=O)C=C)c4)cc3)n2)C1` ?
10 to 100 nM

Quick one: IC50 for `C=CC(=O)N[C@H]1CCCC[C@@H]1Nc1nnc(C(N)=O)c(Nc2ccc(C(C)C)cc2)n1` ?
100 to 1000 nM

Quick one: IC50 for `C[C@@H]1[C@H](NC(=O)c2ccc(-c3ncco3)cc2)CCCN1c1cnc(C(N)=O)c(Nc2cnn(C)c2)n1` ?
100 to 1000 nM

Quick one: IC50 for `C=CC(=O)N1CCC[C@@H](Nc2nnc(C(N)=O)c(Nc3ccc(C)cc3)n2)C1` ?
10 to 100 nM

Quick one: IC50 for `C=CC(=O)N1CC[C@@H](N(C)c2nnc(C(N)=O)c(Nc3ccc(C(C)C)cc3)n2)C1` ?
≤ 10 nM

Quick one: IC50 for `C=CC(=O)N1CCC[C@@H](Nc2nnc(C(N)=O)c(Nc3ccc(C(C)C)c(C)c3)n2)C1` ?
10 to 100 nM

Quick one: IC50 for `C[C@@H]1[C@H](NC(=O)c2ccc(C3CC3)cc2)CCCN1c1cnc(C(N)=O)c(Nc2ccc(N3CCN(C4CCCC4)C[C@@H]3C)cc2)n1` ?
10 to 100 nM

Quick one: IC50 for `C=CC(=O)N1CCC[C@@H](Nc2nnc(C(N)=O)c(Nc3cccc(-c4nccs4)c3)n2)C1` ?
10 to 100 nM

Quick one: IC50 for `C[C@@H]1[C@H](NC(=O)c2ccc(C3CC3)cc2)CCCN1c1cnc(C(N)=O)c(Nc2ccc(N3CCN(C4COC4)C[C@@H]3C)cc2)n1` ?
10 to 100 nM

Quick one: IC50 for `C=CC(=O)N1CCC[C@@H](Nc2nnc(C(N)=O)c(Nc3cccc(-c4ncccn4)c3)n2)C1` ?
10 to 100 nM

Quick one: IC50 for `CN1C(=O)CCc2cc(Nc3nc(N[C@@H]4CCCN(C(=O)OC(C)(C)C)C4)nnc3C(N)=O)ccc21` ?
1000 to 10000 nM

Quick one: IC50 for Cn1cc(Nc2nc(N3CCC4CCN(C(=O)c5ccc(C6CC6)cc5)C4C3)cnc2C(N)=O)cn1 (stereo not drawn) ?
1000 to 10000 nM

Quick one: IC50 for `C=CC(=O)NC[C@H]1CCCCN1c1nnc(C(N)=O)c(Nc2ccc(C(C)C)cc2)n1` ?
100 to 1000 nM

Quick one: IC50 for `C=CC(=O)N1CC[C@@H](N(C)c2cnc(C(N)=O)c(Nc3cnn(C)c3)n2)C1` ?
≤ 10 nM

Quick one: IC50 for `C=CC(=O)N1CC[C@@H](N(C)c2cnc(C(N)=O)c(Nc3cc(C)ns3)n2)C1` ?
≤ 10 nM
